Attribute: Rezeptorbindung
molecular target: Rezeptorsubtyp M₂ (Rattus norvegicus, UniProt P10980); construct: Herz; from tissue; host or cells: heart; assay: Muscarinic receptor binding study, M₂ subtype, heart, [³H]N-methylscopolamine; conditions: Organ Herz, [³H]Ligand N-Methylscopolamin, kind of constant not stated
Sequence (P10980 whole entry): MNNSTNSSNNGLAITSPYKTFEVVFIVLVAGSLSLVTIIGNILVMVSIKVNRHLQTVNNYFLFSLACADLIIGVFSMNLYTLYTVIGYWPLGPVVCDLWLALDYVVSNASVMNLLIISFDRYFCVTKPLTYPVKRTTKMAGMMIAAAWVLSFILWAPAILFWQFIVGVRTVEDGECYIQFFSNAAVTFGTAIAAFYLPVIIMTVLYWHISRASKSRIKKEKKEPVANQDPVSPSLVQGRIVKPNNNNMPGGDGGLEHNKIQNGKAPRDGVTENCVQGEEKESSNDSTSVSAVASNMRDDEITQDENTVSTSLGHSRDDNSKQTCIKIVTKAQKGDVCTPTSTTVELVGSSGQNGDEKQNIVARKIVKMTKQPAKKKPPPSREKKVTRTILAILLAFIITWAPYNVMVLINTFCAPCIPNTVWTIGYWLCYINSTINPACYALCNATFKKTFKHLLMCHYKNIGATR
endpoint: Rezeptorbindung

* CCCCc1cc2c(o1)CN(C)CC2 [X=O, R₁=n-Bu, R₂=H, R₃=H, R₄=CH₃, R₅=H] | 0,7 µMol
* Cc1cc2c(o1)CN(C)CC2 [X=O, R₁=CH₃, R₂=H, R₃=H, R₄=CH₃, R₅=H] | 6,5 µMol
* CC(C)Cc1cc2c(o1)CN(C)CC2 [X=O, R₁=iso-Bu, R₂=H, R₃=H, R₄=CH₃, R₅=H] | 2,5 µMol
* CCc1cc2c(o1)CN(C)CC2 [X=O, R₁=Et, R₂=H, R₃=H, R₄=CH₃, R₅=H] | 1,0 µMol
* CCN1CCc2c(oc(C)c2C)C1 [X=O, R₁=CH₃, R₂=CH₃, R₃=H, R₄=Et, R₅=H] | 3,2 µMol
* Cc1cc2c(s1)CN(C)CC2C (stereo not shown) [X=S, R₁=CH₃, R₂=H, R₃=H, R₄=CH₃, R₅=CH₃] | 8,4 µMol
* CN1CCc2ccsc2C1 [X=S, R₁=H, R₂=H, R₃=H, R₄=CH₃, R₅=H] | >100 µmol
* Cc1cc2c(s1)CN(C)CC2 [X=S, R₁=CH₃, R₂=H, R₃=H, R₄=CH₃, R₅=H] | 14 µmol
* Cc1cc2c(s1)CNCC2 [X=S, R₁=CH₃, R₂=H, R₃=H, R₄=H, R₅=H] | >100 µmol
* CCN1CCc2cc(C)sc2C1 [X=S, R₁=CH₃, R₂=H, R₃=H, R₄=Et, R₅=H] | 4,5 µMol

Origin of measurements: patent EP0314154A2
